measurementTarget: binding between TBK1 and full-length Regnase-1 (FL_Reg1) (Homo sapiens)
Construct: made in house; host or cells: Expi293 cells
Sequence (Q5D1E8 whole entry): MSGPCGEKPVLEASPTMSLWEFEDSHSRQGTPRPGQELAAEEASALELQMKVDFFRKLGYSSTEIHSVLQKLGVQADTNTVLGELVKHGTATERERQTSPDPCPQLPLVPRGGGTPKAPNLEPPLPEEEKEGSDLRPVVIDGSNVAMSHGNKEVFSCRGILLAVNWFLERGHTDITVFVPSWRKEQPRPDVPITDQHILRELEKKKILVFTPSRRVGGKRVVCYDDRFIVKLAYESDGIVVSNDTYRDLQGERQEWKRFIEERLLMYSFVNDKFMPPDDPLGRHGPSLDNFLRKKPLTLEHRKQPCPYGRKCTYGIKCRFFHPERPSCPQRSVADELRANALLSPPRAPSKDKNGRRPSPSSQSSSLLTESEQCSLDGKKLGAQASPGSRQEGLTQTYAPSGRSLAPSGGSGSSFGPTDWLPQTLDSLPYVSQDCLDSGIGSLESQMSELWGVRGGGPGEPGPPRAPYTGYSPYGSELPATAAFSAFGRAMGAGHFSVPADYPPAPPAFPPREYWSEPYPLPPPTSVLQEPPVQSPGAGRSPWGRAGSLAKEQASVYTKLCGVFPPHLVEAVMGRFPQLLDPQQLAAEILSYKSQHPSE
methodDescription: Inhibition of kinase-Regnase-1 binding by the compounds (AlphaScreen), TBK1
runParameters: Table 13; binding between TBK1 and Regnase-1; read-out: Binding inhibition FL_Reg1, 50% inhibition concentration (TBK1)
Residues, ends and D or L forms follow the SMILES beside them.
measuredEndpoint: pIC50
Just the number, please; pIC50 means minus log10 of the concentration in mol/L.

Recorded result, CC[C@H](C)[C@@H]1NC(=O)[C@H](CC(N)=O)NC(=O)[C@H](Cc2ccc(O)cc2)NC(=O)[C@H](Cc2c[nH]c3ccccc23)NC(=O)[C@H](CO)NC(=O)[C@H](CC(N)=O)NC(=O)[C@H](CO)NC(=O)[C@H](Cc2ccccc2)NC(=O)[C@H](CC(N)=O)NC(=O)[C@H](C)N(C)C(=O)C[C@@H](C(=O)N2CCCC2)NC(=O)[C@H](Cc2c[nH]c3ccccc23)NC1=O [PP16] (HELM PEPTIDE1{[meA].N.F.S.N.S.W.Y.N.I.W.D.[C1CCN([*:1])C1]}$PEPTIDE1,PEPTIDE1,1:R1-12:R3$$$V2.0) , pIC50: 4.69

response.value for CC[C@H](C)[C@@H]1NC(=O)[C@H](Cc2c[nH]c3ccccc23)NC(=O)[C@H](CCCNC(=N)N)NC(=O)[C@H](Cc2ccccc2)NC(=O)[C@H](CCC(N)=O)NC(=O)[C@H](C)NC(=O)[C@H](Cc2ccccc2)NC(=O)[C@H](CCCCN)NC(=O)[C@H](C)N(C)C(=O)C[C@@H](C(=O)N2CCCC2)NC(=O)[C@@H]2CCCN2C(=O)[C@H](Cc2ccc(O)cc2)NC1=O [PP11] (HELM PEPTIDE1{[meA].K.F.A.Q.F.R.W.I.Y.P.D.[C1CCN([*:1])C1]}$PEPTIDE1,PEPTIDE1,1:R1-12:R3$$$V2.0) (field: pIC50) = 4.22

----------
measurementTarget: FL_Reg1 (full-length human Regnase-1) phosphorylation by IKKβ (Homo sapiens)
Construct: made in house; host or cells: Expi293 cells
Sequence (Q5D1E8 whole entry): as above
methodDescription: Regnase-1 phosphorylation inhibition by compounds (AlphaScreen), IKKβ, full-length Regnase-1
Type: biochemical
runParameters: Table 14; phosphorylation by IKKβ; read-out: Phosphorylation inhibition FL_Reg1, 50% inhibition concentration (IKKβ)
Residues, ends and D or L forms follow the SMILES beside them.
measuredEndpoint: pIC50
Value format note: pIC50 is -log10 of concentration (mol/L); just state the number.

Record summary for CC[C@H](C)[C@@H]1NC(=O)[C@H](Cc2c[nH]c3ccccc23)NC(=O)[C@H](CCCNC(=N)N)NC(=O)[C@H](Cc2ccccc2)NC(=O)[C@H](CCC(N)=O)NC(=O)[C@H](C)NC(=O)[C@H](Cc2ccccc2)NC(=O)[C@H](CCCCN)NC(=O)[C@H](C)N(C)C(=O)C[C@@H](C(=O)N2CCCC2)NC(=O)[C@@H]2CCCN2C(=O)[C@H](Cc2ccc(O)cc2)NC1=O [PP11] (HELM PEPTIDE1{[meA].K.F.A.Q.F.R.W.I.Y.P.D.[C1CCN([*:1])C1]}$PEPTIDE1,PEPTIDE1,1:R1-12:R3$$$V2.0) : reported pIC50 = 4.65

----------
measurementTarget: FL_Reg1 (full-length human Regnase-1) phosphorylation by TBK1 (Homo sapiens, UniProt Q5D1E8)
Construct: made in house; host or cells: Expi293 cells
Sequence (Q5D1E8 whole entry): as above
methodDescription: Regnase-1 phosphorylation inhibition by compounds (AlphaScreen), TBK1, full-length Regnase-1
Format: biochemical
runParameters: Table 13; phosphorylation by TBK1; read-out: Phosphorylation inhibition FL_Reg1, 50% inhibition concentration (TBK1)
Residues, ends and D or L forms follow the SMILES beside them.
measuredEndpoint: IC50 (µM)
The figure you give is taken to be in µM; do not add the unit.

CC[C@H](C)[C@@H]1NC(=O)[C@H](CC(N)=O)NC(=O)[C@H]([C@@H](C)CC)NC(=O)[C@H](Cc2ccc(O)cc2)NC(=O)[C@H](Cc2c[nH]c3ccccc23)NC(=O)[C@H](CO)NC(=O)[C@H](CC(N)=O)NC(=O)[C@H](C)N(C)C(=O)C[C@@H](C(=O)N2CCCC2)NC(=O)[C@H](Cc2c[nH]cn2)NC(=O)CNC(=O)[C@H](Cc2c[nH]c3ccccc23)NC1=O [PP15] (HELM PEPTIDE1{[meA].N.S.W.Y.I.N.I.W.G.H.D.[C1CCN([*:1])C1]}$PEPTIDE1,PEPTIDE1,1:R1-12:R3$$$V2.0); 8.5

Looking up CC[C@H](C)[C@@H]1NC(=O)[C@H](CC(N)=O)NC(=O)[C@H](Cc2ccc(O)cc2)NC(=O)[C@H](Cc2c[nH]c3ccccc23)NC(=O)[C@H](CO)NC(=O)[C@H](CC(N)=O)NC(=O)[C@H](CO)NC(=O)[C@H](Cc2ccccc2)NC(=O)[C@H](CC(N)=O)NC(=O)[C@H](C)N(C)C(=O)C[C@@H](C(=O)N2CCCC2)NC(=O)[C@H](Cc2c[nH]c3ccccc23)NC1=O [PP16] (HELM PEPTIDE1{[meA].N.F.S.N.S.W.Y.N.I.W.D.[C1CCN([*:1])C1]}$PEPTIDE1,PEPTIDE1,1:R1-12:R3$$$V2.0) , I found its IC50 recorded as 52.4

CC[C@H](C)[C@@H]1NC(=O)[C@H](Cc2c[nH]c3ccccc23)NC(=O)[C@H](CO)NC(=O)[C@H](Cc2c[nH]c3ccccc23)NC(=O)[C@H](C(C)C)NC(=O)CNC(=O)[C@H](Cc2ccccc2)NC(=O)[C@H](CCCNC(=N)N)NC(=O)[C@H](C)N(C)C(=O)C[C@@H](C(=O)N2CCCC2)NC(=O)[C@@H]2CCCN2C(=O)[C@H](Cc2ccc(O)cc2)NC1=O [PP14] (HELM PEPTIDE1{[meA].R.F.G.V.W.S.W.I.Y.P.D.[C1CCN([*:1])C1]}$PEPTIDE1,PEPTIDE1,1:R1-12:R3$$$V2.0) yielded IC50 of 3.1

// IC50 value for CC[C@H](C)[C@@H]1NC(=O)[C@H](CCCCN)NC(=O)[C@H](Cc2ccc(O)cc2)NC(=O)[C@H](Cc2c[nH]c3ccccc23)NC(=O)[C@H](CO)NC(=O)[C@H](CC(N)=O)NC(=O)[C@H](C)N(C)C(=O)C[C@@H](C(=O)N2CCCC2)NC(=O)[C@H](CC(C)C)NC(=O)CNC(=O)[C@H](Cc2c[nH]c3ccccc23)NC1=O [PP21] (HELM PEPTIDE1{[meA].N.S.W.Y.K.I.W.G.L.D.[C1CCN([*:1])C1]}$PEPTIDE1,PEPTIDE1,1:R1-11:R3$$$V2.0) : 13.5

----------
measurementTarget: binding between IKKβ and full-length Regnase-1 (FL_Reg1) (Homo sapiens, UniProt Q5D1E8)
Construct: made in house; host or cells: Expi293 cells
Sequence (Q5D1E8 whole entry): as above
methodDescription: Inhibition of kinase-Regnase-1 binding by the compounds (AlphaScreen), IKKβ
runParameters: Table 12; 2.5 nM Regnase-1, 2.5 nM IKKβ; AlphaScreen; read-out: 50% inhibition concentration, binding between Regnase-1 and IKKβ, FL_Reg1
Residues, ends and D or L forms follow the SMILES beside them.
Listing of recorded pIC50 by entry.
When answering, recall that pIC50 equals minus log10 of the concentration in mol/L, and write that number alone.

CC[C@H](C)[C@@H]1NC(=O)[C@H](CC(N)=O)NC(=O)[C@H](Cc2ccc(O)cc2)NC(=O)[C@H](Cc2c[nH]c3ccccc23)NC(=O)[C@H](C)NC(=O)[C@H](CC(N)=O)NC(=O)[C@H](CO)NC(=O)[C@H](Cc2c[nH]cn2)NC(=O)[C@H](C)N(C)C(=O)C[C@@H](C(=O)N2CCCC2)NC(=O)[C@H](Cc2c[nH]c3ccccc23)NC1=O [PP5] (HELM PEPTIDE1{[meA].H.S.N.A.W.Y.N.I.W.D.[C1CCN([*:1])C1]}$PEPTIDE1,PEPTIDE1,1:R1-11:R3$$$V2.0); 4.62

Lab note: next compound to report on.
Record CC[C@H](C)[C@@H]1NC(=O)[C@H](CC(N)=O)NC(=O)[C@H](Cc2ccc(O)cc2)NC(=O)[C@H](Cc2c[nH]c3ccccc23)NC(=O)[C@H](CO)NC(=O)[C@H](CC(N)=O)NC(=O)[C@H](C)NC(=O)[C@H](Cc2ccc(O)cc2)NC(=O)CNC(=O)[C@H](C)N(C)C(=O)C[C@@H](C(=O)N2CCCC2)NC(=O)[C@H](Cc2c[nH]c3ccccc23)NC1=O [PP2] (HELM PEPTIDE1{[meA].G.Y.A.N.S.W.Y.N.I.W.D.[C1CCN([*:1])C1]}$PEPTIDE1,PEPTIDE1,1:R1-12:R3$$$V2.0) , field pIC50: 4.45
